These entries and their values trace back to PubChem BioAssay (NCI).

test system: HT29 colon; test: NCI tumour cell line growth inhibition, 48 h; in the data active = GI50 below about 0.43 µM; inactive = the rest
Outcomes you can answer with include only these: yes (1) (active), no (0) (inactive)

INSERT INTO results (compound, label_class) VALUES
  ('COc1cc2c(cc1OCCCCOc1cc3c(cc1OC)C(=O)N1CCC[C@H]1CN3)N=C[C@@H]1CCCN1C2=O', 'no (0)'),
  ('Cc1ccc(C2=NOC3=c4ccccc4=CSC3=C2c2ccc([N+](=O)[O-])cc2)cc1', 'no (0)'),
  ('CC(CN1CCN(CCOCCO)CC1)CN1c2ccccc2Sc2ccc(Cl)cc21 (centres undefined)', 'no (0)');

Field: next compound
Inquiry: Which outcome was assigned to CCN(C(=O)N1CCN(c2cc3c(cc2F)c(=O)c(C(=O)O)cn3C2CC2)CC1)c1nc(-c2ccc(C)cc2)cs1 in this test?
Reply text: yes (1)
